Reference for the values: patent US20230110188A1

# SYSTEM UNDER TEST: T1, Human MuSK (R&D Systems, cat. 10189-MK, histidine tag) (human, UniProt O15146 24-495)
# T1 construct: Bought protein; also called human monomeric MuSK-6xhis; not shown: histidine tag (6xhis)
# T1 sequence: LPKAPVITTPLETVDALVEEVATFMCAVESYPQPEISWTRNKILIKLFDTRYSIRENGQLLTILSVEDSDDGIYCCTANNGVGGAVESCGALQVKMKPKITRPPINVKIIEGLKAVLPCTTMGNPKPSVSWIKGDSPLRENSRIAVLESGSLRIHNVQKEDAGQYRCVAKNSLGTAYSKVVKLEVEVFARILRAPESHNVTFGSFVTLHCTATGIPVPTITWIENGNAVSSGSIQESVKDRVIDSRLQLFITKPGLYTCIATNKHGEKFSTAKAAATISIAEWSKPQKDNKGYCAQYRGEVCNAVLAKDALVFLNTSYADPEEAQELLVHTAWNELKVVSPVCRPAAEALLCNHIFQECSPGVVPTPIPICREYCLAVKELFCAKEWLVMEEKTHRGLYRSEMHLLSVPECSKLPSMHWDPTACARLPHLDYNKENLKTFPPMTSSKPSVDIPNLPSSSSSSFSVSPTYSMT
# ASSAY COMMENT: SPR (Biacore), MuSK-coated chip presaturated with 500 nM 3F6c (competitor)
QUANTITY: normalized extra amplitude (%)
Write the figure, then the unit, nothing else.

Input: Please report normalized extra amplitude (%) for the following binder: 3D10a (antibody, human IgG1, kappa, L234A L235A, V domains shown) VH: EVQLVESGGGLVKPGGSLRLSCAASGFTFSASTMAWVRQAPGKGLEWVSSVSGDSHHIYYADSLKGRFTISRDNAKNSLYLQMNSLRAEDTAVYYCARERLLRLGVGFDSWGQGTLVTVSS VL: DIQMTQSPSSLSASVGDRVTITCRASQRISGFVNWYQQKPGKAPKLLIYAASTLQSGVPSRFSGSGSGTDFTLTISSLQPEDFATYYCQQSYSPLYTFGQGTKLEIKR
Output: 1.4%
